Values from the supplement of paper PMC7556523

# System: Sporothrix schenckii ATCC 32286
# experiment_summary: growth inhibition relative to untreated control; higher = more growth inhibition (more antifungal activity), active = 80 or more; extreme values may be limits of the assay
# protocol_conditions: 1 µM; 48 h
attribute_measured: growth inhibition (%)
Express it in %; write the number only.

Sample records with growth inhibition:
1. c1ccc(-c2[nH]c3ccccc3c2C(c2ccccn2)N2CCCC2)cc1 (configuration not stated)
12.2
2. CC(C)(C)OC(=O)N1CCN(c2cc(-c3ccc(Oc4ccccc4)cc3)n[nH]2)CC1
0
3. CNCCC(Oc1ccc(C(F)(F)F)cc1)c1ccccc1 (configuration not stated)
2
4. Clc1ccc(CN2CCN(C3=NCCN3)CC2)cc1Cl
17
5. CC1CCCN(C(=O)C(C)Nc2cc(Cl)ccc2N2CCOCC2)C1 (configuration not stated)
0.5

// growth inhibition value for `CCn1ncc2c(NC3CCOCC3)c(CNC(=O)c3ccnn3C)c(C)nc21` : 0

// growth inhibition value for Cc1ccc2[nH]c(C3CCCNC3)c(-c3ccncc3)c2c1 (configuration not stated) : 7.75

// growth inhibition value for CC(C)C(NC(=O)Cc1cccc2ccccc12)C(=O)Nc1cccc(C#N)c1 (configuration not stated) : 9.25

// growth inhibition value for `O=C(NC1CC1)c1ccc(CSCc2ccccc2Cl)o1` : 2

// growth inhibition value for `c1ccc(Oc2ccc(-c3cc(C4CCOCC4)[nH]n3)cc2)cc1` : 2.75

// growth inhibition value for `COc1cc(C(F)(F)F)nc2ccc(C)c(N)c12` : 14.5

// growth inhibition value for `Cc1ccc(-c2cc(C(=O)Nc3cccnc3)c3cc(Br)ccc3n2)cc1` : 0

// growth inhibition value for `CN1CCN(CCCOc2ncc(Nc3ncc(-c4ccc(C(F)(F)F)c(F)c4)nc3C(N)=O)cn2)CC1` : 0

// growth inhibition value for `C[C@H]1COc2c(N3CCN(C)CC3)c(F)cc3c(=O)c(C(=O)O)cn1c23` : 0

// growth inhibition value for `C[C@H]1c2cccc(O)c2C(=O)C2=C(O)[C@]3(O)C(=O)C(C(N)=O)=C(O)[C@@H](N(C)C)[C@@H]3[C@@H](O)[C@@H]21` : 10.5

// growth inhibition value for `CS(=O)(=O)c1ccccc1C(=O)N(Cc1ccccc1)c1ccccc1` : 24

// growth inhibition value for `O=C(Nc1c(O)cccc1-c1nc2c(C(=O)O)cccc2o1)c1cc(-c2ccccc2)on1` : 3.75

// growth inhibition value for `Nc1nccc2ccc(-c3ccc4nccn4c3)cc12` : 13.5

// growth inhibition value for `c1ccc(Oc2ccc(-c3cc(N4CCOCC4)[nH]n3)cc2)cc1` : 8

// growth inhibition value for `CN1CCN(c2nccc3[nH]c(-c4cccc(F)c4)cc23)CC1` : 19.5

// growth inhibition value for NCCC(O)C(=O)N[C@@H]1C[C@H](N)[C@@H](OC2O[C@H](CN)[C@@H](O)[C@H](O)[C@H]2O)[C@H](O)C1OC1O[C@H](CO)[C@@H](O)[C@H](N)[C@H]1O (some centres not stated) : 1

// growth inhibition value for `COc1ccc2nc(C)cc(OCC(=O)NCc3ccccc3)c2c1` : 14.8

// growth inhibition value for `Cc1ccc(S(=O)(=O)Nc2ccc(CN3CCN(C(=O)c4cccc(C#N)c4)CC3)cc2)cc1` : 0.5

// growth inhibition value for `CO[C@@H](C(=O)N1Cc2[nH]nc(NC(=O)c3ccc(N4CCN(C)CC4)cc3)c2C1)c1ccccc1` : 1.5

// growth inhibition value for `COc1ccc(Cn2cnc3c(-c4ccco4)nc(Cl)nc32)cc1` : 17.8

// growth inhibition value for `CCCn1nnc(NC(=O)COc2ccc(C3CCCCC3)cc2)n1` : 0.5

// growth inhibition value for `Nc1ccc2ncnc(Nc3ccc(OCc4cccc(F)c4)c(Cl)c3)c2c1` : 8.25

// growth inhibition value for `N=C(N)c1ccc(OCCCCCOc2ccc(C(=N)N)cc2)cc1` : 72

---

# System: Sporothrix brasiliensis CBS 133006
# experiment_summary: growth inhibition relative to untreated control; higher = more growth inhibition (more antifungal activity), active = 80 or more; extreme values may be limits of the assay
# protocol_conditions: 1 µM; 48 h
attribute_measured: growth inhibition (%)
Express it in %; write the number only.

1) COc1ccc(Cl)cc1NC(=O)CN(C)C(=O)c1cnn(-c2ccccc2)n1
14.5

// growth inhibition value for CCC(Sc1nc2ccccc2o1)C(=O)Nc1nccs1 (stereo not given) : 5.75

// growth inhibition value for `COc1ccc(C2=NN(C3CCCCCC3)C(=O)C2(C)C)cc1OCCCCOc1ccc(-c2nn[nH]n2)cc1` : 6.25

// growth inhibition value for `CN1CCN(S(=O)(=O)c2ccc(-c3ccc4c(Nc5ccc6nn[nH]c6c5)ccnc4c3)cc2)CC1` : 4.25

// growth inhibition value for `CC(C)c1ncc(-c2ccncc2)c([C@H]2CC[C@H](CNC(=O)c3cccnc3)CC2)n1` : 4.5

---

# System: Sporothrix schenckii ATCC 32286
# experiment_summary: growth inhibition relative to untreated control; higher = more growth inhibition (more antifungal activity), active = 80 or more; extreme values may be limits of the assay
# protocol_conditions: 1 µM; 48 h
attribute_measured: growth inhibition (%)
Express it in %; write the number only.

Sample records with growth inhibition:
1. CN1CCN(c2cc(-c3ccc(F)cc3)nc(-c3ccncc3)n2)CC1
12.2
2. O=C(COc1cccc(F)c1)Nc1nc(-c2ccccn2)cs1
8.75
3. CC(C)(C(=O)Nc1ccc(F)cc1)n1cc(-c2ccccc2F)cn1
11
4. O=C(Nc1ccccc1-c1nc2c(C(=O)O)cccc2o1)c1ccccc1
0
5. CN1CCC(NCc2cccc(-c3ccc(S(=O)(=O)NCc4ccccc4)cc3)c2)CC1
13.5
6. COCC(C)NC(=O)CSc1ncnc2sc(-c3ccccc3)cc12 (centres undefined)
14.2
7. COC(=O)c1cccc2oc(-c3cccc(OC)c3NC(=O)c3cc(-c4ccccc4)on3)nc12
0
8. CCN(CC)S(=O)(=O)c1ccc(C(=O)Nc2cc(C)nn2-c2nc(C)c(C)c(=O)[nH]2)cc1
0
9. Nc1ncc(-c2ccc(C(F)(F)F)nc2)cc1-c1ccc(C(F)(F)F)nc1
11
10. Nc1ccc(C(=O)Nc2ccc(-c3nc4ccccc4o3)cc2)cc1
0

Next:
// growth inhibition value for `COc1cc(-c2cc(-c3ccc(S(C)(=O)=O)cc3)cnc2N)ccc1O` : 19.8

---

# Tested on: Sporothrix schenckii ATCC 32286
# experiment_summary: growth inhibition relative to untreated control; higher = more growth inhibition (more antifungal activity), active = 80 or more; extreme values may be limits of the assay
# protocol_conditions: 1 µM; 48 h
attribute_measured: growth inhibition (%)
Express it in %; write the number only.

Sample records with growth inhibition:
1) OCCc1ccc(Nc2nccc(-c3nnc4ccccn34)n2)cc1
2.5
2) CC[C@@H](CO)NCCN[C@@H](CC)CO
12.2
3) N#Cc1nc(-c2ccccc2)oc1S(=O)(=O)c1ccc(Cl)cc1
6.25
4) NCC(=O)N1CCn2c(nc(-c3ccccc3)c2Nc2ccc3c(c2)OCO3)C1
0.5
5) CC(C)(CN)c1nc(-c2ccc(Cl)c(O)c2)c(-c2ccnc(N)n2)[nH]1
21.8
6) Cc1nc(-c2cccc(NCc3ccccc3)c2)[nH]c1C
10.2
7) CCCn1c(CNc2ccccc2O)nc2ccccc21
13.2
8) N=C(N)Nc1ccc(-c2ccc(-c3ccc(NC(=N)N)cc3Cl)o2)c(Cl)c1
0
9) COc1ccc(-c2cnc3cnc(-c4cccc(OC(C)C)c4)cn23)cc1
12
10) COC(=O)Nc1nc2cc(C(=O)c3ccccc3)ccc2[nH]1
16

// growth inhibition value for CCc1cc(=O)n(C)c(SC(C)C(=O)Nc2ccc(F)cc2)n1 (stereo unspecified) : 13.5

---

# System: Sporothrix brasiliensis CBS 133006
# experiment_summary: growth inhibition relative to untreated control; higher = more growth inhibition (more antifungal activity), active = 80 or more; extreme values may be limits of the assay
# protocol_conditions: 1 µM; 48 h
attribute_measured: growth inhibition (%)
Express it in %; write the number only.

Sample records with growth inhibition:
1) CCc1ccc([C@@H]2C[C@H](C(F)(F)F)n3ncc(C(=O)NCc4ccc(OC)cc4)c3N2)cc1
15.5
2) Nc1ncnc2c1ncn2C[C@@H](O)[C@@H](O)C(=O)O
5
3) COc1cc(C2=NCCN2)ccc1-n1cc(-c2cccc(C3=NCCN3)c2)nn1
18.5

// growth inhibition value for `Cc1cc(NC(=O)c2ccc(Oc3ccc(Cl)cc3O)o2)no1` : 18.8

// growth inhibition value for `Cc1nc(-c2ccccn2)nc(NCCc2ccc(S(C)(=O)=O)cc2)c1Cl` : 13

// growth inhibition value for `O[C@@H](c1cc(C(F)(F)F)nc2c(C(F)(F)F)cccc12)[C@H]1CCCCN1` : 6

// growth inhibition value for `FC(F)(F)c1cnc(Sc2nnc(-c3ccncc3)o2)c(Cl)c1` : 3.5

// growth inhibition value for `O=C1COCc2ccc(Br)cc2N1Cc1ccc(C(F)(F)F)cc1` : 0

// growth inhibition value for `COc1cncc(-c2cncc(N3CCN(c4ccncc4)CC3)n2)c1` : 34.2

// growth inhibition value for CC1=Nc2ccc(Cl)cc2C(c2ccccc2)N1CCNC(=O)CN(C)C (stereo unspecified) : 22.8

// growth inhibition value for `O=C(OCc1ccccc1)N1CCC(c2cc(-c3ccncc3)c(-c3ccc(F)cc3)[nH]2)CC1` : 5.25

// growth inhibition value for `Cc1cc(C(=O)Nc2cnn(Cc3ccc(Cl)cc3Cl)c2)no1` : 5.75

// growth inhibition value for `c1cncc(NCc2ccc(-c3cc4ccncc4cc3OC3CCNCC3)s2)c1` : 20.8
